test system: Serum Cholesterol; assay: Serum cholesterol analysis in ovariectomized rats; assay type: in vivo, Sprague Dawley rats; conditions: Rattus norvegicus, po, 96 h, 0.1 mg/kg, daily for 4 days, OVX rats, read-out: Serum Cholesterol (% decrease vs. OVX)
property-label: inhibition in vivo at 0.1 mg/kg (%)
Reply with just the number (in %).

O=C(c1ccc(OCCN2CCCCC2)cc1)c1c(-c2cccc3ccccc23)sc2cc(O)ccc12 [Example 2]	56
COc1ccc(Cc2sc3cc(OC)ccc3c2C(=O)c2ccc(OCCN3CCCCC3)cc2)cc1 [Example 10]	10.3

# input # query: inhibition in vivo at 0.1 mg/kg of entry O=C(c1ccc(OCCN2CCCCC2)cc1)c1c(-c2ccsc2)sc2cc(O)ccc12 [Example 9]
# output 0.6

# input # query: inhibition in vivo at 0.1 mg/kg of entry O=C(c1ccc(OCCN2CCCCC2)cc1)c1c(-c2cccs2)sc2cc(O)ccc12 [Example 7]
# output -18.6

# input # query: inhibition in vivo at 0.1 mg/kg of entry C#C[C@]1(O)CC[C@H]2[C@@H]3CCc4cc(O)ccc4[C@H]3CC[C@@]21C [EE2, 17α-ethynyl estradiol, reference compound]
# output 81.4

# input # query: inhibition in vivo at 0.1 mg/kg of entry O=C(c1ccc(OCCN2CCCCC2)cc1)c1c(-c2ccc3ccccc3c2)sc2cc(O)ccc12 [Example 4]
# output 48.1

# input # query: inhibition in vivo at 0.1 mg/kg of entry O=C(c1ccc(OCCN2CCCCC2)cc1)c1c(Cc2ccc(O)cc2)sc2cc(O)ccc12 [Example 11]
# output 43

# input # query: inhibition in vivo at 0.1 mg/kg of entry COc1ccc2c(C(=O)c3ccc(OCCN4CCCCC4)cc3)c(-c3ccsc3)sc2c1 [Example 8]
# output -23.4

---

Attribute: inhibition in vivo at 1 mg/kg
system: Serum Cholesterol; test: Serum cholesterol analysis in ovariectomized rats; type: in vivo, Sprague Dawley rats; conditions: Rattus norvegicus, po, 96 h, 1.0 mg/kg, daily for 4 days, OVX rats, read-out: Serum Cholesterol (% decrease vs. OVX)
Reply with just the number (in %).

Reference set (2 entries):
O=C(c1ccc(OCCN2CCCCC2)cc1)c1c(-c2cccs2)sc2cc(O)ccc12	-0.9
O=C(c1ccc(OCCN2CCCCC2)cc1)c1c(-c2cccc3ccccc23)sc2cc(O)ccc12	60.6

# input # query: inhibition in vivo at 1 mg/kg of entry O=C(c1ccc(OCCN2CCCCC2)cc1)c1c(-c2ccsc2)sc2cc(O)ccc12
# output 29.8

---

system: MCF-7 breast adenocarcinoma cells; assay: MCF-7 Proliferation Assay (tritiated thymidine); assay type: cell-based; conditions: Homo sapiens, MCF7; 48 hours, tritiated thymidine incorporation
Labelling field: enter 1 (yes) if recorded IC50 is less than 10 nM. Enter 0 (no) if it equals or exceeds that cut-off.

O=C(c1ccc(OCCN2CCCCC2)cc1)c1c(-c2ccc3ccccc3c2)sc2cc(O)ccc12 [Example 4]	0 (no)
O=C(c1ccc(OCCN2CCCCC2)cc1)c1c(-c2cccc3ccccc23)sc2cc(O)ccc12 [Example 2]	1 (yes)
O=C(c1ccc(OCCN2CCCCC2)cc1)c1c(Cc2ccc(O)cc2)sc2cc(O)ccc12 [Example 11]	1 (yes)

Query compound follows.
# input Quick check: does O=C(c1ccc(OCCN2CCCCC2)cc1)c1c(-c2cccs2)sc2cc(O)ccc12 [Example 7] have IC50 under 10 nM?
# output 0 (no)

---

Attribute: inhibition in vivo at 1 mg/kg
test system: Serum Cholesterol; experiment: Serum cholesterol analysis in ovariectomized rats; format: in vivo, Sprague Dawley rats; conditions: Rattus norvegicus, po, 96 h, 1.0 mg/kg, daily for 4 days, OVX rats, read-out: Serum Cholesterol (% decrease vs. OVX)
Reply with just the number (in %).

Reference set (3 entries):
O=C(c1ccc(OCCN2CCCCC2)cc1)c1c(-c2ccc3ccccc3c2)sc2cc(O)ccc12	54.5
O=C(c1ccc(OCCN2CCCCC2)cc1)c1c(Cc2ccc(O)cc2)sc2cc(O)ccc12	35.3
COc1ccc(Cc2sc3cc(OC)ccc3c2C(=O)c2ccc(OCCN3CCCCC3)cc2)cc1	49

# input # query: inhibition in vivo at 1 mg/kg of entry COc1ccc2c(C(=O)c3ccc(OCCN4CCCCC4)cc3)c(-c3ccsc3)sc2c1
# output -3.5

Origin of values: patent US5728724A
